Origin of measurements: patent US4346082A

The following molecules are shown together with reported pH of 5 Weight Percent Solution values.
assay: pH of 5 weight percent aqueous salt solution; format: physicochemical; details: 5 g salt per 100 g aqueous solution, 25° C
Lab note: record the figure alone, no unit after it.

Example molecules with recorded pH of 5 Weight Percent Solution:
                                   molecule                         quantity  reading
0  N.N.O=S(O)(O)=S [Ammonium thiosulfate, ammonium thiosulfate]  pH of 5 Weight Percent Solution    5.966
1  CC(=O)O [Ammonium acetate, ammonium acetate]  pH of 5 Weight Percent Solution    6.790
2  Cl.N [Ammonium chloride, ammonium chloride, reference compound]  pH of 5 Weight Percent Solution    4.761

Field: next molecule
// field: pH of 5 Weight Percent Solution; key: N.NS(=O)(=O)O [Ammonium sulfamate, ammonium sulfamate] ; value = 5.335
